Could you please report measured LC retention time for the items listed next?
# assayDetails: RP, Waters ACQUITY UPLC BEH C18, 100 × 1 mm, 1.7 µm, 50 °C, 0.3 mL/min, estimated dead time 0.17 min; A: water + 0.1% formic acid + 20 mM ammonium formate; B: methanol + 0.1% formic acid + 20 mM ammonium formate; gradient (min/%B) 0/0 15/100 21/100 22/0 30/0
# assaySetup: stereoisomer not certain
Kindly provide the numeric value in min only, without the unit symbol.

INPUT: May I ask what LC retention time has been recorded for NC(Cc1c[nH]c2ccccc12)C(=O)O (centres undefined) ?
OUTPUT: 6.3

INPUT: Which LC retention time value is on record for CC=C1CC2(CO)OC2(C)C(=O)OCC2=CCN3CCC(OC1=O)C23 (centres undefined) ?
OUTPUT: 6

INPUT: Value lookup for LC retention time; key = COc1ccc2cc(C(C)C(=O)O)ccc2c1 (centres undefined)
OUTPUT: 13.8

INPUT: Record request: LC retention time value, item "C=CNc1nc(NC(C)(C)C)nc(SC)n1"
OUTPUT: 14.3

INPUT: Entry "Cc1ncc2n1-c1ccc(Cl)cc1C(c1ccccc1F)=NC2" : reported LC retention time = ?
OUTPUT: 11.4

INPUT: May I ask what LC retention time has been recorded for CCOP(=O)(SC(C)CC)N1CCSC1=O (centres undefined) [Fosthiazate] ?
OUTPUT: 12.6

INPUT: Quick one: LC retention time for "CCC(C(N)=O)(C(N)=O)c1ccccc1" ?
OUTPUT: 7.76

INPUT: # get_value(readout='LC retention time', item= CC(C)C1CCC(Cc2ccc(Cl)cc2)C1(O)Cn1cncn1 (single isomer, unassigned; isomer 1) [Ipconazole (Isomer 1)] )
OUTPUT: 16.4

INPUT: LC retention time for CCCCCCCCCCCC(CC1OC(=O)C1CCCCCC)OC(=O)C(CC(C)C)NC=O (centres undefined) ?
OUTPUT: 19

INPUT: Need LC retention time, item CC12CCC(=O)C=C1CCC1C2CCC2(C)C1CCC2(C)O (centres undefined)
OUTPUT: 14.7

INPUT: # lookup: LC retention time of "O=C1CCCCCN1"
OUTPUT: 6.99

INPUT: What does the data say about its LC retention time? Entry: "CN(C)c1ccccc1"
OUTPUT: 2.5

INPUT: Requested field: LC retention time. Item: CC12C=CC(=O)C=C1CCC1C3CC(O)C(O)(C(=O)CO)C3(C)CC(O)C12F (centres undefined)
OUTPUT: 10

INPUT: Give the measured LC retention time of COc1ccc(Cl)cc1C(=O)NCCc1ccc(S(=O)(=O)NC(=O)NC2CCCCC2)cc1 [Glibenclamide] .
OUTPUT: 14.9

INPUT: What value of LC retention time has been recorded for this entry: "COP(=S)(OC)Oc1ccc(Sc2ccc(OP(=S)(OC)OC)cc2)cc1"
OUTPUT: 16.8

INPUT: // lookup LC retention time for CC(NC(C)(C)C)C(=O)c1cccc(Cl)c1 (centres undefined)
OUTPUT: 10.5

INPUT: Value lookup for LC retention time; key = c1ccc(C2CN3CCSC3=N2)cc1 (centres undefined)
OUTPUT: 6.7

INPUT: Which LC retention time reading was recorded for the compound CCCCCCCCCCCCCCOS(=O)(=O)O [Tetradecylsulfate] ?
OUTPUT: 17.2

INPUT: Any idea what its LC retention time is? The compound is N#Cc1nn(-c2c(Cl)cc(C(F)(F)F)cc2Cl)c(N)c1SC(F)(F)F [Fipronil sulfide]
OUTPUT: 15.4

Data provenance is the RepoRT retention time repository (doi:10.1021/acs.analchem.1c00972).
